# System: red blood cells
# Assay Explanation: Hemolysis assay
# Assay type: cell-based, Sprague-Dawley mouse
# Experimental: To confirm cytotoxicity by the hemolytic activity of each peptoid synthesized in Example 1, hemolysis analysis was performed. […] A supernatant was obtained and transferred to a new 96-well plate at 150 μL, and absorbance was measured using a spectrophotometer at 540 nm. Percent hemolysis may be calculated by the following Equation 1, and the corresponding results are shown in Tables 11 to 13. % Hemolysis=(A−C)/(B−C)×100 [Equation 1] […]

Molecule: C[C@@H](c1ccccc1)N(CC(N)=O)C(=O)CN(C(=O)CN(CCCCN)C(=O)CN(C(=O)CN(C(=O)CN(CCCCN)C(=O)CN(C(=O)CN(C(=O)CN(CCCCN)C(=O)CN(CCc1c[nH]c2ccccc12)C(=O)CN(CCc1c[nH]c2ccccc12)C(=O)CNCCCCN)[C@@H](C)c1ccccc1)[C@@H](C)c1ccccc1)[C@@H](C)c1ccccc1)[C@@H](C)c1ccccc1)[C@@H](C)c1ccccc1 [Peptoid 14]
Limit Sign: =
HC50 [µM]: 21.1

Molecule: C[C@@H](c1ccccc1)N(CC(N)=O)C(=O)CN(C(=O)CN(CCCCN)C(=O)CN(CCc1c[nH]c2ccccc12)C(=O)CN(CCc1c[nH]c2ccccc12)C(=O)CN(CCCCN)C(=O)CN(CCc1c[nH]c2ccccc12)C(=O)CN(CCc1c[nH]c2ccccc12)C(=O)CN(CCCCN)C(=O)CN(C(=O)CN(C(=O)CNCCCCN)[C@@H](C)c1ccccc1)[C@@H](C)c1ccccc1)[C@@H](C)c1ccccc1
Limit Sign: =
HC50 [µM]: 33.9

Molecule: C[C@@H](c1ccccc1)N(CC(N)=O)C(=O)CN(CCCCN)C(=O)CN(C(=O)CN(CCCCN)C(=O)CN(CCCCN)C(=O)CN(C(=O)CN(C(=O)CN(CCCCN)C(=O)CN(C(=O)CN(C(=O)CN(CCCCN)C(=O)CN(C(=O)CNCCc1c[nH]c2ccccc12)[C@@H](C)c1ccccc1)[C@@H](C)c1ccccc1)[C@@H](C)c1ccccc1)[C@@H](C)c1ccccc1)[C@@H](C)c1ccccc1)[C@@H](C)c1ccccc1
Limit Sign: >
HC50 [µM]: 100

* * *

# Tested on: red blood cells
# Assay Explanation: Hemolysis assay
# Type: cell-based, Sprague-Dawley mouse
Readings of Hmax (100 μM) for the listed compounds

Mol Smiles: C[C@@H](c1ccccc1)N(CC(N)=O)C(=O)CN(C(=O)CN(CCCCN)C(=O)CN(C(=O)CN(C(=O)CN(CCCCN)C(=O)CN(CCc1c[nH]c2ccccc12)C(=O)CN(CCc1c[nH]c2ccccc12)C(=O)CN(CCCCN)C(=O)CN(C(=O)CN(C(=O)CNCCCCN)[C@@H](C)c1ccccc1)[C@@H](C)c1ccccc1)[C@@H](C)c1ccccc1)[C@@H](C)c1ccccc1)[C@@H](C)c1ccccc1
Hmax (100 μM): 96.8 ± 1.6%
//
Mol Smiles: C[C@@H](c1ccccc1)N(CC(N)=O)C(=O)CN(CCCCN)C(=O)CN(C(=O)CN(C(=O)CN(CCCCN)C(=O)CN(C(=O)CN(C(=O)CN(CCCCN)C(=O)CN(C(=O)CN(CCCCN)C(=O)CN(CCCCN)C(=O)CN(C(=O)CNCCc1c[nH]c2ccccc12)[C@@H](C)c1ccccc1)[C@@H](C)c1ccccc1)[C@@H](C)c1ccccc1)[C@@H](C)c1ccccc1)[C@@H](C)c1ccccc1)[C@@H](C)c1ccccc1
Hmax (100 μM): 79.9 ± 0.7%

* * *

# Tested on: red blood cells
# Assay Explanation: Hemolysis assay
# Format: cell-based, Sprague-Dawley mouse

Compound: C[C@@H](c1ccccc1)N(CC(N)=O)C(=O)CN(C(=O)CN(CCCCN)C(=O)CN(C(=O)CN(C(=O)CN(CCCCN)C(=O)CN(C(=O)CN(C(=O)CN(CCCCN)C(=O)CN(C(=O)CN(C(=O)CN(CCCCN)C(=O)CN(Cc1ccccc1)C(=O)CNCc1ccccc1)[C@@H](C)c1ccccc1)[C@@H](C)c1ccccc1)[C@@H](C)c1ccccc1)[C@@H](C)c1ccccc1)[C@@H](C)c1ccccc1)[C@@H](C)c1ccccc1)[C@@H](C)c1ccccc1 [Peptoid 43]
Tested On: red blood cells
HC10: < 3.1 µM
//
Compound: C[C@@H](c1ccccc1)N(CC(N)=O)C(=O)CN(CCCCN)C(=O)CN(C(=O)CN(C(=O)CN(CCCCN)C(=O)CN(C(=O)CN(C(=O)CN(CCCCN)C(=O)CN(C(=O)CN(CCCCN)C(=O)CN(CCCCN)C(=O)CN(C(=O)CNCCc1c[nH]c2ccccc12)[C@@H](C)c1ccccc1)[C@@H](C)c1ccccc1)[C@@H](C)c1ccccc1)[C@@H](C)c1ccccc1)[C@@H](C)c1ccccc1)[C@@H](C)c1ccccc1 [Peptoid 61]
Tested On: red blood cells
HC10: 19.3 µM
//
Compound: C[C@@H](c1ccccc1)N(CC(N)=O)C(=O)CN(CCCCN)C(=O)CN(CCCCN)C(=O)CN(C(=O)CN(C(=O)CN(CCCCN)C(=O)CN(C(=O)CN(C(=O)CN(CCCCN)C(=O)CN(CCc1c[nH]c2ccccc12)C(=O)CN(CCc1c[nH]c2ccccc12)C(=O)CNCCCCN)[C@@H](C)c1ccccc1)[C@@H](C)c1ccccc1)[C@@H](C)c1ccccc1)[C@@H](C)c1ccccc1 [Peptoid 32-1]
Tested On: red blood cells
HC10: >100/>100 μM

* * *

# Assay Explanation: in vitro
Where a SMILES comes first, the peptide text is derived from it. [ ]: non-standard residue; d: D form. Nspe = C[C@H](NCC(=O)O)c1ccccc1; Nlys = NCCCCNCC(=O)O

Compound: C[C@@H](c1ccccc1)N(CC(N)=O)C(=O)CN(C(=O)CN(CCCCN)C(=O)CN(C(=O)CN(C(=O)CN(CCCCN)C(=O)CN(C(=O)CN(C(=O)CN(CCCCN)C(=O)CN(C(=O)CN(C(=O)CNCCCCN)[C@@H](C)c1ccccc1)[C@@H](C)c1ccccc1)[C@@H](C)c1ccccc1)[C@@H](C)c1ccccc1)[C@@H](C)c1ccccc1)[C@@H](C)c1ccccc1)[C@@H](C)c1ccccc1 [Peptoid 1, reference compound] (H-[Nlys][Nspe][Nspe][Nlys][Nspe][Nspe][Nlys][Nspe][Nspe][Nlys][Nspe][Nspe]-NH2)
Display Unit: µM
CC50 at 24 h: 7.3

* * *

Readings of HC10 for the listed molecules
# System: red blood cells
# Assay Explanation: Hemolysis assay
# Format: cell-based, Sprague-Dawley mouse
Where a SMILES comes first, the peptide text is derived from it. [ ]: non-standard residue; d: D form. Gly(N(CH2)2(3-indolyl)) = O=C(O)CNCCc1c[nH]c2ccccc12; Nspe = C[C@H](NCC(=O)O)c1ccccc1; Nlys = NCCCCNCC(=O)O

Molecule: C[C@@H](c1ccccc1)N(CC(N)=O)C(=O)CN(CCCCN)C(=O)CN(CCCCN)C(=O)CN(C(=O)CN(C(=O)CN(CCCCN)C(=O)CN(C(=O)CN(C(=O)CN(CCCCN)C(=O)CN(CCc1c[nH]c2ccccc12)C(=O)CN(CCc1c[nH]c2ccccc12)C(=O)CNCCCCN)[C@@H](C)c1ccccc1)[C@@H](C)c1ccccc1)[C@@H](C)c1ccccc1)[C@@H](C)c1ccccc1 [Peptoid 32-2]
Display Unit: µM
HC10: 83.0
--
Molecule: C[C@@H](c1ccccc1)N(CC(N)=O)C(=O)CN(C(=O)CN(CCCCN)C(=O)CN(CCc1c[nH]c2ccccc12)C(=O)CN(CCc1c[nH]c2ccccc12)C(=O)CN(CCCCN)C(=O)CN(CCc1c[nH]c2ccccc12)C(=O)CN(CCc1c[nH]c2ccccc12)C(=O)CN(CCCCN)C(=O)CN(C(=O)CN(C(=O)CNCCCCN)[C@@H](C)c1ccccc1)[C@@H](C)c1ccccc1)[C@@H](C)c1ccccc1 [Peptoid 20]
Display Unit: µM
HC10: 8.2
--
Molecule: C[C@@H](c1ccccc1)N(CC(=O)N(CCc1c[nH]c2ccccc12)CC(N)=O)C(=O)CN(CCCCN)C(=O)CN(C(=O)CN(C(=O)CN(CCCCN)C(=O)CN(C(=O)CN(C(=O)CN(CCCCN)C(=O)CN(C(=O)CN(C(=O)CNCCCCN)[C@@H](C)c1ccccc1)[C@@H](C)c1ccccc1)[C@@H](C)c1ccccc1)[C@@H](C)c1ccccc1)[C@@H](C)c1ccccc1)[C@@H](C)c1ccccc1 [Peptoid 7] (H-[Nlys][Nspe][Nspe][Nlys][Nspe][Nspe][Nlys][Nspe][Nspe][Nlys][Nspe][Gly(N(CH2)2(3-indolyl))]-NH2)
Display Unit: µM
HC10: 7.8
--
Molecule: C[C@@H](c1ccccc1)N(CC(N)=O)C(=O)CN(C(=O)CN(CCCCN)C(=O)CN(C(=O)CN(C(=O)CN(CCCCN)C(=O)CN(C(=O)CN(C(=O)CN(CCCCN)C(=O)CN(CCc1c[nH]c2ccccc12)C(=O)CN(CCc1c[nH]c2ccccc12)C(=O)CNCCCCN)[C@@H](C)c1ccccc1)[C@@H](C)c1ccccc1)[C@@H](C)c1ccccc1)[C@@H](C)c1ccccc1)[C@@H](C)c1ccccc1 [Peptoid 14-2]
Display Unit: µM
HC10: 14.9
